Species on record: Oryctolagus cuniculus
assay_method_text: Inhibition of rabbit platelet aggregation induced by PAF (Platelet activating factor)
Assay type: functional
readout_name: IC50 (nM)

Solved entries (count: 4):
1) CSCCC1NC(=O)C(Cc2cn(C)c3ccccc23)NC1=O (stereo unspecified): 2300
2) CSC[C@H]1NC(=O)[C@H](Cc2cn(C)c3ccccc23)NC1=O: 140000
3) CSC[C@@H]1NC(=O)[C@@H](Cc2cn(C)c3ccccc23)NC1=O: 36000
4) CSC[C@@H]1NC(=O)[C@H](Cc2cn(C)c3ccccc23)NC1=O: 250000

1 = CSC[C@@H]1N=C(C2=C(O)C=CC2)[C@H]([C@@H](C)[C@@H]2C(=O)N(C)c3ccccc32)NC1=O
2 = CSCC[C@H]1NC(=O)[C@@H]([C@@H](C)c2cccc3ccccc23)NC1=O
3 = CSC[C@H]1NC(=O)[C@@H](Cc2cn(C)c3ccccc23)NC1=O
4 = CSCC[C@H]1NC(=O)[C@@H]([C@@H](C)c2cn(C)c3ccccc23)NC1=O
5 = CSCC[C@H]1NC(=O)[C@@H]([C@H](C)c2cccc3ccccc23)NC1=O
In this exercise, place the 5 molecules in ascending sequence of their recorded IC50. Response field: labels, in requested order. 5, 1, 2, 4, 3

a = COc1cc([C@H]2CC[C@H](c3cc(OC)c(OC)c(OC)c3)O2)cc(OC)c1OC
b = CSCC[C@H]1NC(=O)[C@@H]([C@H](C)c2cn(C)c3ccccc23)NC1=O
Just tell me: smaller IC50 value, a or b ? Choose, then provide that item's label. a
(a: 320 nM, b: 700 nM)
